Would you mind telling me the reported Neut IC50 (µg/ml) subtype B of each entry?
Target: RSV F protein of subtype B (18537) on recombinant mKate-RSV virus (Respiratory syncytial virus subtype B …, UniProt P13843 26-574)
Assay: cell-based or functional assay
Give bare numbers, in µg/mL.

ADI-18971 (antibody, V domains shown, full-length IgG from yeast; also called Antibody Number 319; Ab # 319) VH: EVQLVESGGGLVQRGGSLRLSCAASGFTFSGNAMSWVRQAPGKGLEWVASIGESATSAYYADSVKGRFTISRDDSKNTLYLQMNSLRPEDTAVYFCAKDRVGWFGEFDAFDFWGQGTMVTVSS VL: SYELTQPPSVSVAPGKTATISCGGNNIGGHKVHWYQQRPGQAPVLVIYYDNVRPSGIPERFSGSNSGNTATLTISRVEAGDEADFYCQVWDSRSEHVIFGGGTKVTVL = 0.114
ADI-18900 (antibody, V domains shown, full-length IgG from yeast) VH: EVQLLESGGALVEPGGSLRLSCAASGFSFNTYSMNWVRQGPGKGLEWVATISTSTAGSYYADSVRGRFTISRDNSKNTLYLQMNSLRVEDTAVYYCARDQEVELIDDAFDFWGRGTMVTVSS VL: DIVMTQTHSSLSASVGDRVTITCRASQSISIWVAWYQQKPGKAPNLLIYKASSLQSGVPSRFSGSGSGTEFTLTISSLQPDDSATYYCQQYYTYYSFGQGTKLEIK = 0.059
ADI-18977 (antibody, V domains shown, full-length IgG from yeast) VH: QVQLVQSGTEVKKPGASVKISCKTSGYTFTNNVIQWVRQAPGQRLEWMGWISAGNGYTKYSDKFQDRVTITRDTSASTAYMEVSSLTSEDTAMYYCARQVSTSGWHATSHRFAPWGQGTLVTVSS VL: DIQMTQSPSSLSASVGDRVTITCQASQGISRYLNWYQQKPGKAPNLLIYDASNLETGVPSRFSGSGSGTHFTLTISSLQPEDIATYYCQQYDNLPLTFGGGTKVEIK = 0.117

Attention now turns to another entry.
Query string: Respond only with Neut IC50 (µg/ml) subtype B recorded for ADI-18882 (antibody, V domains shown, full-length IgG from yeast) VH: QVQLVQSGAEVKKPGSSVRVSCKASGGTFRGYGLSWVRQAPGQGLEWMGGITHLFGTVSYAPKFQGRLTITADASTGTAYMELSSLISEDTAVYFCARDAYEVWTGSYLPPFDYWGQGTMVTVSS VL: DIVMTQSPGTLSLSPGERVTLSCRASQIIPSSYLAWYQQKPGQAPRLLIYGAFTRATDIPDRFSGSGSGTDFTLTISRLEPEDFAVYYCQQYGSSFLTFGGGTKVEIK
Result string: 0.057
